Test system: 521955-158-R2-J5-PDC complex spheroid growth;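 further: spheroids mix tumor cells with HUVEC endothelium and human MSC stroma; luminescence taken as viability surrogate after a week of drug exposure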
Assay: Anticancer human tumor 521955-158-R2-J5-PDC patient-derived pancreatic carcinoma cell line growth inhibition [AhR]
Details: second compound 10 µM; first compound 0.00949 µM; stronger effect = lower value
attribute measured: viability, T/C (%)
Enter your answer as a number in %; do not include the unit.

Record excerpt, results attached:
Could you share what viability, T/C was measured for CCc1c2c(nc3ccc(O)cc13)-c1cc3c(c(=O)n1C2)COC(=O)[C@]3(O)CC + CC(CO)NC(=O)c1cc(-c2ccc(Cl)cc2)nn(-c2cnn(C)c2)c1=O , tested on 521955-158-R2-J5-PDC complex spheroid growth?;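 further: spheroids mix tumor cells with HUVEC endothelium and human MSC stroma; luminescence taken as viability surrogate after a week of drug exposure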
14.9

What do you have for CCN(c1cc(-c2ccc(CN3CCOCC3)cc2)cc(C(=O)NCc2c(C)cc(C)[nH]c2=O)c1C)C1CCOCC1 + Cc1cncc(-c2nc(NCCc3c[nH]c4ccccc34)c3ncn(C(C)C)c3n2)c1 ?
112

Would you kindly repeat that for CC(C)CC(NC(=O)C(Cc1ccccc1)NC(=O)c1cnccn1)B(O)O (configuration not stated) + Cc1cncc(-c2nc(NCCc3c[nH]c4ccccc34)c3ncn(C(C)C)c3n2)c1 ?
11.6

Cool, now CCc1c2c(nc3ccc(O)cc13)-c1cc3c(c(=O)n1C2)COC(=O)[C@]3(O)CC + Cc1cncc(-c2nc(NCCc3c[nH]c4ccccc34)c3ncn(C(C)C)c3n2)c1
24.1

// repeat for CCN(c1cc(-c2ccc(CN3CCOCC3)cc2)cc(C(=O)NCc2c(C)cc(C)[nH]c2=O)c1C)C1CCOCC1 + CC(CO)NC(=O)c1cc(-c2ccc(Cl)cc2)nn(-c2cnn(C)c2)c1=O and report
91

---
Return viability, T/C measured with 521955-158-R2-J5-PDC complex spheroid growth given this compound: CCc1c2c(nc3ccc(O)cc13)-c1cc3c(c(=O)n1C2)COC(=O)[C@]3(O)CC + Cc1ccccc1N=Nc1ccc(NC(=O)c2ccnn2C)c(C)c1
35.1

Record: Nc1ncn(C2CC(O)C(CO)S2)c(=O)n1 (configuration not stated) + CC(CO)NC(=O)c1cc(-c2ccc(Cl)cc2)nn(-c2cnn(C)c2)c1=O
102
